src = patent US20060069132A1

System: ducksalad
TEST: Test C flooded paddy test
Format: in vivo, Heteranthera limosa
TEST CONDITIONS: 500 g ai/ha, visual rating after 12 to 14 days, scale 0 to 100 (0 no effect, 100 complete control)
Excerpt: […]
Values of Plant response rating, Ducksalad strictly less than 70 map to rule met, and values of at least 70 map to rule not met.

Example entries begin here.
Would you kindly verify if Plant response rating, Ducksalad of C#CCNC(=O)c1cccc(NC(=O)c2nn(C(C)(C)C)nc2C)c1 [Compound 394] is strictly less than 70?
rule met

Please determine if CCc1nc(C(C)(C)C)sc1C(=O)Nc1cccc(C(=O)N(C)C)c1 [Compound 228] is below 70 in terms of Plant response rating, Ducksalad.
rule not met

API: query returns whether the compound falls strictly under 70 in Plant response rating, Ducksalad. Query: CCn1nc(C(C)(C)C)cc1C(=O)Nc1cccc(OC(F)F)c1 [Compound 332]
rule not met

Further cases:
Is it true that Plant response rating, Ducksalad reported for CCNC(=O)c1cccc(NC(=O)c2cn(C(C)(C)C)nc2CC)c1 [Compound 181] is less than 70?
rule not met

Quick check: Plant response rating, Ducksalad of Cc1nn(C(C)C)nc1C(=O)Nc1cccc(C(=O)N(C)C)c1 [Compound 404] under 70?
rule met

Regarding CCn1nc(C(C)(C)C)cc1C(=O)Nc1cc(C(=S)N(C)C)ccc1F [Compound 294] , kindly confirm whether its Plant response rating, Ducksalad is beneath 70.
rule not met

Lab note: Plant response rating, Ducksalad threshold 70. Does this compound come in strictly under it? CCc1nn(C(C)(C)C)nc1C(=O)Nc1cccc(C(=S)N(C)C)c1 [Compound 395]
rule met

Field: below-cutoff. Rule: recorded Plant response rating, Ducksalad strictly less than 70. Subject: CCNC(=O)c1cc(NC(=O)c2cc(C(C)(C)C)nn2CC)ccc1F [Compound 58]
rule met
